Biological target: B1R of the rat (Rattus norvegicus)
Construct: expressed in transfected cells; host or cells: CHO K1 cells (Chinese hamster ovary), stably transfected
Sequence (P97583 1-337): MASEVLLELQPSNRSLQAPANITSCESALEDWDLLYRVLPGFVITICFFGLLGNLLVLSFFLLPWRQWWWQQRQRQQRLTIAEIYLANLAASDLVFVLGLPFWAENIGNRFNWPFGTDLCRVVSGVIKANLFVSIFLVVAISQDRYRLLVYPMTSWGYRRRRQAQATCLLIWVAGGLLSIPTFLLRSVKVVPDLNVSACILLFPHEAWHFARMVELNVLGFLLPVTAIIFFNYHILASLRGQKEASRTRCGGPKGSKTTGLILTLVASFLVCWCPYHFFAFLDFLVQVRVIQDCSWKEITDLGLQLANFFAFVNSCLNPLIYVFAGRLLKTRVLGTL
Test: FLIPR Ca2+ functional assay, B1R antagonism, rat B1R in CHO K1 cells
Type: cell-based
Conditions: test substance 10 μM; rB1R CHO K1 cells; agonist Des-Arg9 bradykinin at EC80; % of maximum achievable inhibition
Metric Name: inhibition at 10 µM (%)

[[record]]
molecule = "O=C(COCC1c2cccn2CCN1S(=O)(=O)c1ccccc1C(F)(F)F)N1CCC2(CC1)CCN(c1ccncc1)C2 (stereo not shown)"
test_target = "B1R of the rat (Rattus norvegicus)"
metric_name = "inhibition at 10 µM"
quantity_unit = "%"
measured_number = 113

[[record]]
molecule = "COc1ccc(N2CCN(C(=O)CC3c4cccn4CCN3S(=O)(=O)c3ccc(C(F)(F)F)cc3Cl)CC2)cc1 (stereo not shown)"
test_target = "B1R of the rat (Rattus norvegicus)"
metric_name = "inhibition at 10 µM"
quantity_unit = "%"
measured_number = 9.45

[[record]]
molecule = "Cc1cccc(Cl)c1S(=O)(=O)N1CCn2cccc2C1COCC(=O)N1CCC(Oc2ccncc2)CC1 (stereo not shown)"
test_target = "B1R of the rat (Rattus norvegicus)"
metric_name = "inhibition at 10 µM"
quantity_unit = "%"
measured_number = 100

[[record]]
molecule = "COc1cc(C)c(S(=O)(=O)N2CCn3cccc3C2CC(=O)N2CCC(c3nc4cc(C)ccc4[nH]3)CC2)c(C)c1 (stereo not shown)"
test_target = "B1R of the rat (Rattus norvegicus)"
metric_name = "inhibition at 10 µM"
quantity_unit = "%"
measured_number = 70.4

